Molecular target: BRM (Homo sapiens)
Construct: made in house; host or cells: High Five insect cells
Test: ATPase catalytic activity of BRM, ADP-Glo in vitro biochemical assay
Conditions: selectivity ratio BRG1 IC50 / BRM IC50
For each record, write down the corresponding Ratio* (BRG1 IC50 (μM) divided by BRM IC50 (μM)).

Consider the worked cases shown below.
> print(dat)
                                 cpd.smiles         test.system  result
1  C[C@@H]1CN(c2cccc(-c3cnc4cnc(CNC(=O)c5ccc6c(c5)S(=O)(=O)CCOC6)cc4c3)n2)C[C@H](C)O1  BRM (Homo sapiens)    9.62
2  C[C@@H]1CN(c2cccc(-c3cnc4cnc(CNC(=O)c5ccc(Cl)c(S(C)(=O)=O)c5)cc4n3)n2)C[C@H](C)O1  BRM (Homo sapiens)   10.70
3  O=C(NCc1cc2nc(-c3ccc4c(n3)N(CC(F)F)CC4)ccc2cn1)c1ccc2c(c1)S(=O)(=O)CCOC2  BRM (Homo sapiens)    5.53
4  C[C@@]1(c2cccc(-c3ccc4cnc(CNC(=O)c5ccc6c(c5)S(=O)(=O)CCOC6)cc4n3)n2)CC1(F)F  BRM (Homo sapiens)   10.01

Quick one: give me Ratio* (BRG1 IC50 (μM) divided by BRM IC50 (μM)) for each item below, same order please.
1. O=C(NCc1cc2nc(-c3ccnc([C@H]4CC4(F)F)n3)ccc2cn1)c1ccc2c(c1)S(=O)(=O)CCOC2
2. CCOc1cccc(-c2ccc3cnc(CNC(=O)c4ccc5c(c4)S(=O)(=O)CCOC5)cc3n2)n1

1: 15.77; 2: 20.48

Form field: Ratio* (BRG1 IC50 (μM) divided by BRM IC50 (μM)) recorded for O=C1CS(=O)(=O)c2cc(C(=O)NCc3cc4nc(-c5cccc(C6CC6)c5)ccc4cn3)ccc2CN1 with BRM (Homo sapiens) (enter value)
17.42

* * *

Molecular target: BRM (Homo sapiens, UniProt P51531)
Construct: made in house; host or cells: High Five insect cells
Sequence (P51531 whole entry): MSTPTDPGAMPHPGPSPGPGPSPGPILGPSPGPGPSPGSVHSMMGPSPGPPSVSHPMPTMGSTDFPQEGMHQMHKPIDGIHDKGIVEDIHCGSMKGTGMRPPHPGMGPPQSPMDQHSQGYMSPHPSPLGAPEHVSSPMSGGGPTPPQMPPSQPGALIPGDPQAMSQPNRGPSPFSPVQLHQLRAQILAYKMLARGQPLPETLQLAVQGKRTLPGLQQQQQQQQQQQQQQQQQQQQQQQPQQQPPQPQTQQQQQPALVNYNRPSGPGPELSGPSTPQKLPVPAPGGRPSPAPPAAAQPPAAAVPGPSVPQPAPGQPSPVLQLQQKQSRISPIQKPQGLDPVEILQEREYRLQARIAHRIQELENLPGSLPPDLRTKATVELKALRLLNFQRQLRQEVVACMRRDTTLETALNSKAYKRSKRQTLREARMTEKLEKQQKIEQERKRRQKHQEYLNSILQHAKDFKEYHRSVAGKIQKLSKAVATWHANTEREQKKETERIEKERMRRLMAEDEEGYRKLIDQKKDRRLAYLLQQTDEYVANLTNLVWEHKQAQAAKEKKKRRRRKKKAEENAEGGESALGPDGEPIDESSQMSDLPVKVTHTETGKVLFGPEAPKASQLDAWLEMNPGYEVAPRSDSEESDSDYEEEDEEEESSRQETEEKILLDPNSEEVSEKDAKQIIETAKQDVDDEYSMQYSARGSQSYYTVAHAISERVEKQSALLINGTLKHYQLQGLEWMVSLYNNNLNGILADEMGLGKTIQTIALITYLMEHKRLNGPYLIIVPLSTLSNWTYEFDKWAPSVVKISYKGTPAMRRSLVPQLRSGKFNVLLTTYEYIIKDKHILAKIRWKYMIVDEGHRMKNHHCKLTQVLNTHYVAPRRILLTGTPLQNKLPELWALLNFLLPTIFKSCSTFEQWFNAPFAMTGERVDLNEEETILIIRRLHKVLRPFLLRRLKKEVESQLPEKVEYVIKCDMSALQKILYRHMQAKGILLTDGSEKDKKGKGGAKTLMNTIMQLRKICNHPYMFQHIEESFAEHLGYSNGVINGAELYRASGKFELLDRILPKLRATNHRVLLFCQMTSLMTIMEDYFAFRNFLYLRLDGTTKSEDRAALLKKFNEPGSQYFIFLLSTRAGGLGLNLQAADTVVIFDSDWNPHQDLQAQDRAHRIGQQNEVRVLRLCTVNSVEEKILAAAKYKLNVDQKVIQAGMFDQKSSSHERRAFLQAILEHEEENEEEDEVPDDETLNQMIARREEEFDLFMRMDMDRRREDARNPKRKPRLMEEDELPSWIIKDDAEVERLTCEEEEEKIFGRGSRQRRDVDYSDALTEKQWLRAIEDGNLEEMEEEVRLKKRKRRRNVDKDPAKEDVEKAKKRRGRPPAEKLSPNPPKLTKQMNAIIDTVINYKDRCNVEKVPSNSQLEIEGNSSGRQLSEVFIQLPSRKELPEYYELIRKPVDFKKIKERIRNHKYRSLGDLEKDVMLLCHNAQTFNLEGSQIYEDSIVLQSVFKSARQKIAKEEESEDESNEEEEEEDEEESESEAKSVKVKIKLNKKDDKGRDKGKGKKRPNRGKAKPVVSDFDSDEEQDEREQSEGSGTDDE
Assay: ATPase catalytic activity of BRM, ADP-Glo in vitro biochemical assay
Conditions: ATPase catalytic activity, ADP-Glo; 30 nM BRM, 400 μM ATP
Readout Label: pIC50
One number for each entry, as −log10 of the molar value.

Consider the worked cases shown below.
> print(dat)
                                    molecule  quantitative.readout
 1  COc1cc(CC(F)F)ccc1-c1ccc2cnc(CNC(=O)c3ccc4c(c3)S(=O)(=O)CCOC4)cc2n1                  7.33
 2  O=C(NCc1cc2nc(-c3cccc(OC4CC4(F)F)n3)ccc2cn1)c1ccc2c(c1)S(=O)(=O)CCOC2 (centres unmarked)                  7.33
 3  C[C@@H]1CN(c2cccc(-c3ccc4cnc(CNC(=O)c5ccc6c(c5)S(=O)(=O)CCO[C@@H]6C5CC5)cc4n3)n2)C[C@H](C)O1                  7.60
 4  COc1cnc2c(c1C)CCCN2c1ccc2cnc(CNC(=O)c3ccc4c(c3)S(=O)(=O)CCOC4)cc2n1                  7.70
 5  C[C@H]1COCc2ccc(C(=O)NCc3cc4nc(-c5cccc(C6CC6)n5)ccc4nn3)cc2S1(=O)=O                  7.82
 6  Cc1cc(C(=O)NCc2cc3nc(-c4cccc(N5C[C@@H](C)O[C@@H](C)C5)n4)ccc3cn2)cc2c1O[C@@H](C)CCS2(=O)=O                  7.38
 7  O=C(NCc1cc2nc(-c3cccc(N4CCOCC(F)(F)C4)n3)ccc2cn1)c1ccc2c(c1)S(=O)(=O)CCOC2                  7.60
 8  CO[C@@H](C)c1cnc2c(c1)CCCN2c1ccc2cnc(CNC(=O)c3ccc4c(c3)S(=O)(=O)CCOC4)cc2n1                  7.35
 9  C[C@@H]1CCS(=O)(=O)c2cc(C(=O)NCc3cc4nc(-c5cccc(N6C[C@@H](C)O[C@@H](C)C6)n5)ccc4cn3)cc(Cl)c2O1                  6.27
10  O=C(NCc1cc2nc(N3CCCc4cc(F)c(F)cc43)ccc2cn1)c1ccc2c(c1)S(=O)(=O)CCOC2                  7.44

Quick one: give me pIC50 for each item below, same order please.
1. C[C@@H]1CN(c2cccc(-c3ccc4cnc(CNC(=O)c5ccc6c(c5)S(=O)(=O)CCOC6(C)C)cc4n3)n2)C[C@H](C)O1
2. O=C(NCc1cc2nc(N3CCOc4ccc(C(F)(F)F)nc43)ccc2cn1)c1ccc2c(c1)S(=O)(=O)CCOC2
3. COCCN(CC(C)(F)F)c1cccc(-c2ccc3cnc(CNC(=O)c4ccc5c(c4)S(=O)(=O)CCOC5)cc3n2)n1
4. CCN1CCN(c2ccc3cnc(CNC(=O)c4ccc5c(c4)S(=O)(=O)CCOC5)cc3n2)c2ncccc21

1: 6.60; 2: 6.96; 3: 7.89; 4: 7.66

* * *

For each record, write down the corresponding Ratio*.
Target: BRM (Homo sapiens, UniProt P51531)
Construct: made in house; host or cells: High Five insect cells
Experiment: ATPase catalytic activity of BRM, ADP-Glo in vitro biochemical assay
Details: ratio of BRG1 IC50 to BRM IC50
Numbers only.

> print(dat)
                                   compound  readout.label  quantitative.readout
1  O=C(NCc1cc2nc(N3CCCc4ccc(C5CCCO5)nc43)ccc2cn1)c1ccc2c(c1)S(=O)(=O)CCOC2 (stereo not drawn)         Ratio*                 24.28
2  C[C@@H]1CN(c2cccc(-c3ccc4cnc(CNC(=O)c5ccc6c(c5)S(=O)(=O)CC[C@H](C(F)F)O6)cc4n3)n2)C[C@H](C)O1         Ratio*                  4.05
3  COc1cc(C(F)(F)F)ccc1-c1ccc2cnc(CNC(=O)c3ccc4c(c3)S(=O)(=O)CCOC4)cc2n1         Ratio*                 11.87
4  COCCn1cc2cccc(-c3ccc4cnc(CNC(=O)c5ccc6c(c5)S(=O)(=O)CCOC6)cc4n3)c2n1         Ratio*                  9.96
5  COCc1cc2c(nc1Cl)N(c1ccc3cnc(CNC(=O)c4ccc5c(c4)S(=O)(=O)CCOC5)cc3n1)CCC2         Ratio*                  8.17

Quick one: give me Ratio* for each item below, same order please.
1. COCCN1CCOc2c(-c3ccc4cnc(CNC(=O)c5ccc6c(c5)S(=O)(=O)CCOC6)cc4n3)ccc(F)c21
2. CS(=O)(=O)c1cc(C(=O)NCc2cc3nc(-c4cn([C@H]5C[C@H](F)C5)nc4OC(F)F)ccc3cn2)ccc1C(F)F
3. CN1CC[C@@H](Oc2cccc(-c3ccc4cnc(CNC(=O)c5ccc6c(c5)S(=O)(=O)CCOC6)cc4n3)n2)C1
4. COc1nc(C(F)F)ccc1-c1ccc2cnc(CNC(=O)c3ccc4c(c3)S(=O)(=O)[C@@H](C)COC4)cc2n1
5. CCN(c1cccc(-c2ccc3cnc(CNC(=O)c4ccc5c(c4)S(=O)(=O)CCOC5)cc3n2)n1)C1CC1
6. O=C(NCc1cc2nc(N3CCCc4ccc(C5CC5)nc43)ccc2cn1)c1ccc2c(c1)S(=O)(=O)CCOC2
7. COC[C@H]1CCc2ccc(-c3ccc4cnc(CNC(=O)c5ccc6c(c5)S(=O)(=O)CCOC6)cc4n3)nc2N1C

10.67
34.42
5.93
17.27
9.67
56.64
6.50

Quick one: give me Ratio* for each item below, same order please.
1. O=C(NCc1cc2nc(N3CCOc4ccc([C@@H]5CC5(F)F)nc43)ccc2cn1)c1ccc2c(c1)S(=O)(=O)CCOC2
2. CCN(c1cccc(-c2ccc3cnc(CNC(=O)c4ccc5c(c4)S(=O)(=O)CCOC5)cc3n2)n1)[C@@H](C)COC

[93.83, 10.78]

Quick one: give me Ratio* for each item below, same order please.
1. COc1nc(-c2ccc3cnc(CNC(=O)c4ccc5c(c4)S(=O)(=O)[C@@H](C)COC5)cc3n2)ccc1C(F)F
2. COCCOc1cc(C(F)F)ccc1-c1ccc2cnc(CNC(=O)c3ccc4c(c3)S(=O)(=O)CCOC4)cc2n1
3. CC1COCc2ccc(C(=O)NCc3cc4nc(-c5cccc(N6C[C@@H](C)O[C@@H](C)C6)n5)ccc4cn3)cc2S1(=O)=O (stereo partly drawn)
4. O=C(NCc1cc2nc(N3CCOc4cc(C5CC5)ccc43)ccc2cn1)c1ccc2c(c1)S(=O)(=O)CCOC2

10.89
9.14
15.59
8.58

Quick one: give me Ratio* for each item below, same order please.
1. CN(C[C@H]1CCO1)c1cccc(-c2ccc3cnc(CNC(=O)c4ccc5c(c4)S(=O)(=O)CCOC5)cc3n2)n1
2. C[C@@H]1CCS(=O)(=O)c2cc(C(=O)NCc3cc4nc(-c5cccc(N6C[C@@H](C)O[C@@H](C)C6)n5)ccc4cn3)cc(F)c2O1
3. CC1CCc2ccc(C(=O)NCc3cc4nc(-c5cccc(N6C[C@@H](C)O[C@@H](C)C6)n5)ccc4cn3)cc2S1(=O)=O (stereo partly drawn)

[10.88, 4.39, 24.73]

Quick one: give me Ratio* for each item below, same order please.
1. O=C(NCc1cc2nc(N3CCCc4ccc([C@H]5CC5(F)F)nc43)ccc2cn1)c1ccc2c(c1)S(=O)(=O)CCOC2
2. CC1CCc2ccc(-c3ccc4cnc(CNC(=O)c5ccc6c(c5)S(=O)(=O)CCOC6)cc4n3)nc2N1C (stereo not drawn)
3. Cc1ccc2c(n1)CN(c1ccc3cnc(CNC(=O)c4ccc5c(c4)S(=O)(=O)CCOC5)cc3n1)CC2
4. Cc1cc2c(nc1C)N(c1ccc3cnc(CNC(=O)c4ccc5c(c4)S(=O)(=O)CCOC5)cc3n1)CCC2
5. COc1cc(Cl)ccc1-c1ccc2cnc(CNC(=O)c3ccc4c(c3)S(=O)(=O)[C@@H](C)COC4)cc2n1
6. CO[C@@H]1CCN(c2cccc(-c3ccc4cnc(CNC(=O)c5ccc6c(c5)S(=O)(=O)CCOC6)cc4n3)n2)C[C@@H]1C

[54.81, 8.27, 4.77, 15.21, 15.24, 11.23]
